assay: yeast display, Sf9 membrane polyspecificity reagent, FACS + sequencing; frameworks hold sequencing errors
measurement-kind: polyreactivity (PSR sort gate)

Some sequences with known polyreactivity (PSR sort gate) results, for comparison:
[
  {
    "primary-sequence": "QVQHVESGGGLVQAGGSLRLSCPASGSIFARYAMGWYRQAPGKERELVAAITSGGITNYADSVMGRFTISRDNAKNTVYLQMISLNPEDTAVYYCAARRSGRVRYDYWGQGTQVTVSS",
    "observed-value": "high polyreactivity"
  },
  {
    "primary-sequence": "QVQLVETGGGLVQAGGSLRLSCAASGRIFRGNTMGWYRQAPGKERELVAAISWRGGRTYYADSVKWRFTISRDNAKNTVYLQMISLKPEDTAVYYCNAVYFQTGVYGYGDYDSWGQGTQVTVSS",
    "observed-value": "low polyreactivity"
  },
  {
    "primary-sequence": "QVQLVESRGGLVQAGGSLRLSCAASGRILHFNAMGWYRQAPGKEREFVASISWSGGFTYYADSVKGRFTISRDNAKNTVYLQMNSLTPEDTAVYYCARGYGYGDHAMGYWGQGTQVTVSS",
    "observed-value": "high polyreactivity"
  },
  {
    "primary-sequence": "QVQLAESGGGLVQAGGSLRLSCAASGGTIGVNAMGWYRQAPGKERELVARISRIGASTHYADSVKGRFTISRDNAKNTVYLMMNSLKPEDTAVYYCAKSNGTPGNFGYWGQGTQVTVSS",
    "observed-value": "low polyreactivity"
  },
  {
    "primary-sequence": "QVQLVESGGGLVQAGGSLRLSCAASGSIFVWYAMGWYRQAPGKERELVAAITSSGGSTYYADSVKGRFTISRDYAKNTVYLQLNSLKPEDTAVYYCAKTPSRRGYYWGQGTQVTVSS",
    "observed-value": "low polyreactivity"
  },
  {
    "primary-sequence": "QVQLVESGGGLVQAGGSLRLSCAASGRIFVTNAMGWYRQAPGKERELVAAISYRGGRTYYADSVKGRFTISRDNAKNTVYLQMNSLKPEDTAVYYCNAVTRWPFDYWGQGTQVTVSS",
    "observed-value": "high polyreactivity"
  },
  {
    "primary-sequence": "QLQLVQSGGGLVQAGGSLRLSCAASGRIFFKYVKGWYRQAPGKERELVAAISSAGSTYYADSVKRRFTISRDNAKNTVYLQMNSLQPEDTAVYYCATYYSAINYGWSKTILYDYWGQGTQVTVSS",
    "observed-value": "low polyreactivity"
  },
  {
    "primary-sequence": "QVQLVESGGGLVQAGGSLRLSCAASGSIFLNNAMGWYRQAPGKERELVAAITRNVGSTYYADSVKGRFTISRDNAKNTVYLQMNSLKPEDSAVYYCAADRRRRYDYWGQGTQVTVSS",
    "observed-value": "low polyreactivity"
  },
  {
    "primary-sequence": "QVQLVESGGGLVQAGGSLRLSCAASGRIFRYNAMGWYRQAPGKERELVAAISTSGTRTFYADSVKGRFTISRDNAMKTVYLQMNSVKPEDTAVYYCNKVAGPGKLGPYYYWGQGTQVTVSS",
    "observed-value": "high polyreactivity"
  },
  {
    "primary-sequence": "QVQLVESGGALVQAGGSLRLSSAASGLTFYYYAMGRYRQAPGKERELVAAITGSGGRTYYADSVKGRFTISRDNAKNNVYLQMNSLKPEDTAVYYCAASWPNYLYEYWGQGTQVTVSS",
    "observed-value": "high polyreactivity"
  }
]

Ask: # query: polyreactivity (PSR sort gate) of entry `QVQLVESGGGLVQAGGSLRLSCGASGSTFWYYAMGWYRPAPGKERELVAAISSRGGSTYYADSVKGRFTISRDKAKNTVYFQLNSLKPEDTAVYYCAILGSYGGGQRRKYDSWGQGTQVTVSS`
Result: high polyreactivity

Ask: # query: polyreactivity (PSR sort gate) of entry `QVQLVESGGGLVQAGGSLRLSCAASGSTFGRNAMGWYRQAPGKERELVAAITASGGTTYYADSVKGRFTISRDNAKNTVFLQMNSLKPEDTSVYYCARAGHFSFKYDYWGQGTQVTVSS`
Result: low polyreactivity

Ask: # query: polyreactivity (PSR sort gate) of entry `QVQLVESGGGLVQAGGSLRLSCAASGRTFGIYTMGWYRQAPGKERKLVAAISKRGSSTYYADSVKGRFTISRDNAKNTVYLQMNSLKPEDTAVYYCNARSWYIRGSQEYYYWGQGTQVTVSS`
Result: high polyreactivity

Ask: # query: polyreactivity (PSR sort gate) of entry `QVQLVESGGGLVQAGGSLRLSSAASGRTLARNAMGWYRQAPGKERELVAGITSGGSTDYADSVKGRFTISRDNAKNTVYLQMNSLKPEDTAVYYCNRDAGPGGDYWGQGTQGTVSS`
Result: low polyreactivity

Ask: # query: polyreactivity (PSR sort gate) of entry `QVQLVESGGGLVQAGGILRLSSAASGFTFSRNAMGWYRQAPGKERELVASISGRGGRTYYADSVKGRFTISRDNAKNTVSLQMNSLKPEDTAVYDCAARWRQRKSVRYGQQGYDYWGQGTQVSVSS`
Result: high polyreactivity

Ask: # query: polyreactivity (PSR sort gate) of entry `QVQLVESGGGLDQAGGSLRLTCAASGIIFFEYAMGWYRQAPGKERELVAAISWRGGRTYYADSVKGRFTISRDNAKNSVYLQMNSLKPEDTAVYYCAADFRSWPYYPWSKYDYWGQGTQVTVSS`
Result: high polyreactivity

Ask: # query: polyreactivity (PSR sort gate) of entry `QVQLVESGVRLLQAGGSLRLSCAASGRIFGVYAMGWYITAPGKERELVAAIRGGGSTKYADSVKGRFTISRDNAKNTVYLQMKSLKPEDTAVYYFAARKLYYKHDYWGQGTQVTVSS`
Result: low polyreactivity
